Target: T1, human IL-11 (human)
T1 chain: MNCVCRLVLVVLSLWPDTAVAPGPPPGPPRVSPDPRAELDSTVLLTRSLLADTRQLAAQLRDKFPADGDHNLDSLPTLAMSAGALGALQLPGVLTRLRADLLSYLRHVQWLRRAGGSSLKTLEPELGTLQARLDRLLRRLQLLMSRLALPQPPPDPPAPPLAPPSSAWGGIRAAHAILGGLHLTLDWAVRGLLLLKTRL
Assay: SPR 25C
Property Measured: Kd

INPUT: Dear colleague, I am looking for the recorded Kd of the following binder: CVH4 (D54E)/CVL3 + YTE (antibody, V domains shown) VH: QVQLQESGPGLVKPSQTLSLTCSFSGFSLSTSGMVVSWIRQPPGKALEWLAAIDWEGEKYYNPSLKSRLTVTKDTSKNQVVLTMTNMDPVDTATYYCARSGNYFEYWGQGTLVTVSS VL: DNQMTQSPSSLSASVGDRVTITCRTSEDIYNALAWYQQKPGKAPQLLIYDANRLHIGVPDRFSGSGSGTDFTLTISSLQAEDVAVYYCQQYYDYPNTFGQGTKLEIK
OUTPUT: 3.34 pM

INPUT: Dear colleague, I am looking for the recorded Kd of the following binder: VH0/VL0 (antibody, V domains shown) VH: QVILKESGPGMLQPSKTLSLTCSFSGFSLSTSGMVVSWIRQPSGKSLEWLAAIDWDGEKYYNPSLKSRLTVSKDTSNTQVFLQITTVDIADTATYYCARSGNYFEYWGQGVIVTVSS VL: DNQMTQSPASLSASLGETVTIECRTSEDIYNALAWYQQKPGKSPQLLIYDANRLHIGVPSRFSGSGSGTQFSLKINSLQSEDVASYFCQQYYDYPNTFGAGTKLELN
OUTPUT: 7.58 pM
